# Subject of test: D189N hMC4R (Homo sapiens, UniProt P32245, D189N)
# Sequence (P32245 whole entry D189N): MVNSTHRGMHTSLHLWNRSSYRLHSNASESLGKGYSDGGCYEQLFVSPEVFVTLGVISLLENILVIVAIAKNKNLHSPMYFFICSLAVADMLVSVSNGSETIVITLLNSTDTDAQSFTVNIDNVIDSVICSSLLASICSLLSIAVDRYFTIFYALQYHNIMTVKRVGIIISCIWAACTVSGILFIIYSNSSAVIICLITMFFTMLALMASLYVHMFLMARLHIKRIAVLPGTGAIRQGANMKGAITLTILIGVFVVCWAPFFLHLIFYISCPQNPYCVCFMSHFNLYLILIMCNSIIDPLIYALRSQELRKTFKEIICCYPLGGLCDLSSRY
# Run description: cAMP AlphaScreen agonist / inverse agonist assay
# Format: cell-based
# Experimental context: D189N hMC4R
Some molecules, each annotated with its measured Inverse agonist percent decrease from basal activity.
Respond with the bare value in %.

[ask] Could you tell me which Inverse agonist percent decrease from basal activity is on file for C[C@@H]1NC(=O)[C@H](CO)NC(=O)[C@H](Cc2ccccc2)NC(=O)[C@H](Cc2ccccc2)NC(=O)[C@H](CCCNC(=N)N)NC(=O)[C@@H]2CCCN2C(=O)[C@H]2CCCN2C(=O)[C@H](Cc2ccccc2)NC1=O [MDE3–85c, c[Pro-Arg-Phe-Phe-Ser-Ala-Phe-DPro]] ?
[reply] −20

---
[ask] Could you tell me which Inverse agonist percent decrease from basal activity is on file for C[C@@H]1NC(=O)[C@H](CC(N)=O)NC(=O)[C@H](Cc2ccccc2)NC(=O)[C@H](Cc2ccccc2)NC(=O)[C@H](CCCNC(=N)N)NC(=O)[C@@H]2CCCN2C(=O)[C@H]2CCCN2C(=O)[C@H](Cc2ccccc2)NC1=O [MDE5–108-10c, c[Pro-Arg-Phe-Phe-Asn-Ala-Phe-DPro]] ?
[reply] −20

[ask] Next entry: C[C@@H]1NC(=O)[C@@H](CN)NC(=O)[C@H](Cc2ccccc2)NC(=O)[C@H](Cc2ccccc2)NC(=O)[C@H](CCCNC(=N)N)NC(=O)[C@@H]2CCCN2C(=O)[C@H]2CCCN2C(=O)[C@H](Cc2ccccc2)NC1=O [MDE3–119-7c, c[Pro-Arg-Phe-Phe-DDap-Ala-Phe-DPro]]
[reply] −15

[ask] Next entry: C[C@@H]1NC(=O)[C@H](CCC(=O)O)NC(=O)[C@H](Cc2ccccc2)NC(=O)[C@H](Cc2ccccc2)NC(=O)[C@H](CCCNC(=N)N)NC(=O)[C@@H]2CCCN2C(=O)[C@H]2CCCN2C(=O)[C@H](Cc2ccccc2)NC1=O [MDE3–119-5c, c[Pro-Arg-Phe-Phe-Glu-Ala-Phe-DPro]]
[reply] −5

[ask] Next entry: C[C@@H]1NC(=O)[C@H](CN)NC(=O)[C@H](Cc2ccccc2)NC(=O)[C@H](Cc2ccccc2)NC(=O)[C@H](CCCNC(=N)N)NC(=O)[C@@H]2CCCN2C(=O)[C@H]2CCCN2C(=O)[C@H](Cc2ccccc2)NC1=O [MDE3–119-8c, c[Pro-Arg-Phe-Phe-Dap-Ala-Phe-DPro]]
[reply] −15
